FYI, the data here is from ChEMBL document CHEMBL1127089.

Entries with their measured pIC50, system Human immunodeficiency virus type 1 reverse transcriptase (Human immunodeficiency virus 1):
Remember the convention: pIC50 equals -log10 of concentration in molar.

# lookup: pIC50 of Cc1cccc(C23SCCN2C(=O)c2ccccc23)c1 (stereo unspecified) 7.52

// next record O=C1c2ccccc2C2(c3cccc4ccccc34)SCCN12 (stereo unspecified) 6.82

Same thing, different molecule: `CC(C)=CCN1Cc2cccc3[nH]c(=S)n(c23)C[C@@H]1C` 6.80

Also check O=C1c2ccccc2[C@@]23CC=CCC12c1ccccc1C3=O (stereo partly specified) 5.06

// repeat for O=C1c2ccccc2C2(c3ccccc3)SCCN12 (stereo unspecified) and report 6.55

And then `O=C1c2ccccc2[C@H]2SCCN1c1ccccc12` , what is it? 6.08
